System: HT-29
measurement-protocol: Antiproliferative activity against human HT29 cells
Format: functional
readout-label: GI50

{"molecule": "O=C(NCCCl)Nc1cccc(Oc2ccccc2)c1", "val": "5.6 µM"}
{"molecule": "O=C(NCCCl)Nc1ccc(C2CCCCC2)cc1", "val": "12.6 µM"}
{"molecule": "O=C(NCCCl)Nc1ccc(OC2CCCCC2)cc1", "val": "23 µM"}
{"molecule": "CCC(C)SSc1ncc[nH]1 (stereo not drawn)", "val": "25 µM"}
{"molecule": "O=C(NCCCl)Nc1ccc2ccccc2c1", "val": "1.9 µM"}
{"molecule": "O=C(NCCCl)Nc1ccc(OC2CCCCCC2)cc1", "val": "12.5 µM"}
{"molecule": "O=C(NCCCl)Nc1cccc(OC2CCCCCC2)c1", "val": "10.7 µM"}
{"molecule": "O=C(NCCCl)Nc1ccc(OC2CCCC2)cc1", "val": "31 µM"}
{"molecule": "O=C(NCCCl)NC1c2ccccc2-c2ccccc21", "val": "19 µM"}
{"molecule": "O=C(NCCCl)Nc1cccc(OC2CCCC2)c1", "val": "9.9 µM"}
{"molecule": "O=C(NCCCl)Nc1ccc2c(c1)CCC2", "val": "3.6 µM"}
{"molecule": "O=C(NCCCl)Nc1ccc(Oc2ccccc2)cc1", "val": "2.4 µM"}
{"molecule": "O=C(NCCCl)Nc1cccc(OC2CCCCC2)c1", "val": "7.9 µM"}

====

Tested on: MCF7
measurement-protocol: Cell cycle arrest in human MCF7 cells assessed as increase in G2/M phase accumulation at 50 uM after 16 hrs by FACS analysis
Assay type: functional
// Activity lookup, one value per entry
readout-label: Activity (%)

{"compound-string": "O=C(NCCCl)Nc1cccc(OC2CCCCCC2)c1", "val": 6}
{"compound-string": "O=C(NCCCl)Nc1cccc(Oc2ccccc2)c1", "val": 30}
{"compound-string": "CCNC(=O)Nc1ccc(C2CCCCC2)cc1", "val": 22}
{"compound-string": "O=C(NCCCl)Nc1cccc(OC2CCCCC2)c1", "val": 8}
{"compound-string": "O=C(NCCCl)Nc1ccc(C2CCCCC2)cc1", "val": 13}
{"compound-string": "O=C(NCCCl)Nc1ccc(OC2CCCCCC2)cc1", "val": 6}
{"compound-string": "O=C(NCCCl)Nc1ccc2ccccc2c1", "val": 45}
{"compound-string": "O=C(NCCCl)Nc1ccc(OC2CCCCC2)cc1", "val": 14}
{"compound-string": "O=C(NCCCl)NC1c2ccccc2-c2ccccc21", "val": 8}
{"compound-string": "O=C(NCCCl)Nc1cccc(OC2CCCC2)c1", "val": 12}
{"compound-string": "O=C(NCCCl)Nc1ccc(OC2CCCC2)cc1", "val": 9}

====

Catalogue of GI50 values
Test system: M21
measurement-protocol: Antiproliferative activity against human M21 cells
Assay type: functional

{"compound": "O=C(NCCCl)Nc1ccc2c(c1)CCC2", "unit-info": "µM", "GI50": 8}
{"compound": "O=C(NCCCl)Nc1ccc2ccccc2c1", "unit-info": "µM", "GI50": 4.1}
{"compound": "O=C(NCCCl)Nc1ccc(OC2CCCCCC2)cc1", "unit-info": "µM", "GI50": 18}
{"compound": "O=C(NCCCl)Nc1ccc(C2CCCCC2)cc1", "unit-info": "µM", "GI50": 21}
{"compound": "O=C(NCCCl)Nc1cccc(OC2CCCCC2)c1", "unit-info": "µM", "GI50": 20}
{"compound": "O=C(NCCCl)NC1c2ccccc2-c2ccccc21", "unit-info": "µM", "GI50": 27}
{"compound": "O=C(NCCCl)Nc1ccc(Oc2ccccc2)cc1", "unit-info": "µM", "GI50": 5.2}
{"compound": "O=C(NCCCl)Nc1cccc(Oc2ccccc2)c1", "unit-info": "µM", "GI50": 16}
{"compound": "CCC(C)SSc1ncc[nH]1 (stereo not drawn)", "unit-info": "µM", "GI50": 8.3}
{"compound": "O=C(NCCCl)Nc1ccc(OC2CCCCC2)cc1", "unit-info": "µM", "GI50": 36}
{"compound": "O=C(NCCCl)Nc1cccc(OC2CCCCCC2)c1", "unit-info": "µM", "GI50": 20}
{"compound": "O=C(NCCCl)Nc1cccc(OC2CCCC2)c1", "unit-info": "µM", "GI50": 22}
{"compound": "O=C(NCCCl)Nc1ccc(OC2CCCC2)cc1", "unit-info": "µM", "GI50": 38}
